- assay_details: half life was determined in plasma of dog
- Assay type: ADME, organism-based, Canis lupus familiaris
Recorded half-life for the following compounds
// return numeric value only (unit: h, not printed)

Check out these entries, answers already filled in.
C/C(=N\O[C@H](c1ccc(OCc2ccc3ccccc3n2)cc1)C1CCCCC1)C(=O)O: 4.6
C/C(=N\O[C@@H](c1ccc(OCc2ccc3ccccc3n2)cc1)C1CCCCC1)C(=O)O: 4.5
CC(=NOC(c1ccc(OCc2ccc3ccccc3n2)cc1)C1CCCCC1)C(=O)O (stereo not given): 2
C/C(=N\OC(c1ccc(OCc2ccc3ccccc3n2)cc1)C1CCCCC1)C(=O)O (stereo not given): 5.6

Alright, here's another compound for you.
Q: Read off the recorded half-life for C/C(=N\O[C@H](c1ccc(OCc2ccc3ccccc3n2)cc1)C1CCCCC1)C(=O)[O-].[Na+]
Ans: 5.6

====

- Species on record: Homo sapiens
- assay_details: Inhibition of Calcium Ionophore (A-23187)-stimulated LTB4 formation in Human whole blood assay.
- Assay type: functional
- condition_context: Homo sapiens, Blood
pIC50 by entry:
Interpret pIC50 as the negative base-10 log of the concentration measured in mol/L.

CC(=NOC(c1ccc(OCc2ccc3ccccc3n2)cc1)C1CCCCC1)C(=O)O (configuration not stated): 5.68

Q: State its pIC50 for this molecule: C/C(=N\O[C@H](c1ccc(OCc2ccc3ccccc3n2)cc1)C1CCCCC1)C(=O)[O-].[Na+]
Ans: 6.14

====

Recorded half-life values for a group of compounds are listed next.
- assay_details: half life was determined in plasma of rat
- Assay type: ADME, organism-based
Please answer using the number first and the unit second.

C/C(=N\O[C@H](c1ccc(OCc2ccc3ccccc3n2)cc1)C1CCCCC1)C(=O)[O-].[Na+]: 10.3 h
C/C(=N\O[C@H](c1ccc(OCc2ccc3ccccc3n2)cc1)C1CCCCC1)C(=O)O: 11.8 h

Q: Answer with reported half-life of CC(=NOC(c1ccc(OCc2ccc3ccccc3n2)cc1)C1CCCCC1)C(=O)O (stereo not drawn)
Ans: 1 h

====

- assay_details: half life was determined in plasma of monkey
- Assay type: ADME
- condition_context: simiiformes
half-life below 2 h gives not fulfilled; half-life at or above it gives fulfilled.

Please review the entries below; each comes with its answer.
CC(=NOC(c1ccc(OCc2ccc3ccccc3n2)cc1)C1CCCCC1)C(=O)O (stereo not given): fulfilled
C/C(=N\O[C@@H](c1ccc(OCc2ccc3ccccc3n2)cc1)C1CCCCC1)C(=O)O: fulfilled
C/C(=N\O[C@H](c1ccc(OCc2ccc3ccccc3n2)cc1)C1CCCCC1)C(=O)O: fulfilled
C/C(=N\OC(c1ccc(OCc2ccc3ccccc3n2)cc1)C1CCCCC1)C(=O)O (stereo not given): not fulfilled

Q: Could you verify whether the entry C/C(=N\O[C@H](c1ccc(OCc2ccc3ccccc3n2)cc1)C1CCCCC1)C(=O)[O-].[Na+] shows half-life of no less than 2 h?
Ans: not fulfilled

====

Each entry below lists one item and its recorded inhibition value.
- target_of_assay: Polyunsaturated fatty acid 5-lipoxygenase (Homo sapiens) (UniProt P09917)
- Sequence (P09917 whole entry): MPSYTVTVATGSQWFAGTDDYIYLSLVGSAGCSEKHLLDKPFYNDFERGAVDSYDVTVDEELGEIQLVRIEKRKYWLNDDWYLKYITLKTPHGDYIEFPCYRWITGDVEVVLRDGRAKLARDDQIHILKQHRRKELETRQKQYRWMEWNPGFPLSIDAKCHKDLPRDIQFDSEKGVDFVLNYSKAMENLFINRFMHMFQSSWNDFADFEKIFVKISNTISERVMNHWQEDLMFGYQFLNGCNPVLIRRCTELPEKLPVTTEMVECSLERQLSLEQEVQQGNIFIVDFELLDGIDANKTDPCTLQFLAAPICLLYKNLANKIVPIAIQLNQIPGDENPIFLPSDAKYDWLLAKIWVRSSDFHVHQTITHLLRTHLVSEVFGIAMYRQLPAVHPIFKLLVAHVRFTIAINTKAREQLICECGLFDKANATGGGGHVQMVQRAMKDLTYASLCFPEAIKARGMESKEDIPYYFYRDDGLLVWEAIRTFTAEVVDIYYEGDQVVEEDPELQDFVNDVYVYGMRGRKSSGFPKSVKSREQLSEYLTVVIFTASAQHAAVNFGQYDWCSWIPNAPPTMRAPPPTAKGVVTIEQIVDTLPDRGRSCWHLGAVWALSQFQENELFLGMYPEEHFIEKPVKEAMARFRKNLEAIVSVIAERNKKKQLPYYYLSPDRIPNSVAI
- assay_details: Inhibition of Calcium Ionophore (A-23187)-stimulated LTB4 formation in Human Neutrophil assay at 100 uM.
- Type: functional

Solved cases (5 shown):
O=C(O)c1ccc(O)c(/C=N/OC(c2ccc(OCc3ccc4ccccc4n3)cc2)C2CCCCC2)c1 (stereo not drawn): 95%
C/C(=N\OC(c1ccc(OCc2ccc3ccccc3n2)cc1)C1CCCCC1)C(=O)O (stereo not drawn): 95%
CCCCCCCC(O/N=C(\C)C(=O)O)c1ccc(OCc2ccc3ccccc3n2)cc1 (stereo not drawn): 96%
CCCCC(O/N=C(\C)C(=O)O)c1ccc(OCc2ccc3ccccc3n2)cc1 (stereo not drawn): 45%
C/C(=N\OC(c1ccc(OCc2ccc3ccccc3n2)cc1)c1cccnc1)C(=O)O (stereo not drawn): 20%

Q: Hello, please tell me recorded inhibition for this one: O=C(O)/C=N/OC(c1ccc(-c2ccc(OCc3ccc4ccccc4n3)cc2)cc1)C1CCCCC1 (stereo not drawn)
Ans: 55%

====

# key: entry, value: inhibition
- target_of_assay: Polyunsaturated fatty acid 5-lipoxygenase (Homo sapiens)
- assay_details: Inhibition of Calcium Ionophore (A-23187)-stimulated LTB4 formation in Human Neutrophil assay at 100 uM.
- Format: functional
Your answer should be a plain number; it is taken to be in %.

COc1cc(OCc2ccc3ccccc3n2)ccc1C(O/N=C(\C)C(=O)O)C1CCCCC1 (configuration not stated): 98

Q: System Polyunsaturated fatty acid 5-lipoxygenase (Homo sapiens). Read-out inhibition. Item O=C(O)/C=N/OC(c1nc(OCc2ccc3ccccc3n2)c(-c2ccccc2)s1)C1CCCCC1 (configuration not stated) . Report value.
Ans: 2

Q: Look up Polyunsaturated fatty acid 5-lipoxygenase (Homo sapiens) data: inhibition of C/C(=N\OC(c1ccc(OCc2cccc(Cl)n2)cc1)C1CCCCC1)C(=O)O (configuration not stated) , then report it.
Ans: 7

Q: # assay system Polyunsaturated fatty acid 5-lipoxygenase (Homo sapiens): give inhibition of C/C(=N/OC(CCc1ccc(OCc2ccc3ccccc3n2)cc1)C1CCCCC1)C(=O)O (configuration not stated)
Ans: 51

Q: Lab note: record inhibition of C/C(=N\OC(c1ccc(OCc2cc(-c3ccccc3)on2)cc1)C1CCCCC1)C(=O)O (configuration not stated) tested on Polyunsaturated fatty acid 5-lipoxygenase (Homo sapiens).
Ans: 61

Q: State recorded inhibition with Polyunsaturated fatty acid 5-lipoxygenase (Homo sapiens), entry O=C(O)/C=N/OC(c1ccc(OCc2ccc3ccccc3n2)c(F)c1)C1CCCCC1 (configuration not stated) , no comment.
Ans: 97

Q: Report value only: inhibition, Polyunsaturated fatty acid 5-lipoxygenase (Homo sapiens), O=C(O)/C=C/c1ccc(/C=N/OC(c2ccc(OCc3ccc4ccccc4n3)cc2)C2CCCCC2)cc1 (configuration not stated)
Ans: 48

Q: Report value only: inhibition, Polyunsaturated fatty acid 5-lipoxygenase (Homo sapiens), COc1ccc(C(O/N=C(\C)C(=O)O)c2ccc(OCc3ccc4ccccc4n3)cc2)cc1 (configuration not stated)
Ans: 58

Q: Please report inhibition with Polyunsaturated fatty acid 5-lipoxygenase (Homo sapiens) for item C/C(=N\OC(c1ccc(OCc2nc(-c3ccc(C(C)C)cc3)cs2)cc1)C1CCCCC1)C(=O)O (configuration not stated) .
Ans: 57

Q: State inhibition on Polyunsaturated fatty acid 5-lipoxygenase (Homo sapiens). Entry: CCCCCCCC(O/N=C/C(=O)O)c1ccc(OCc2ccc3ccccc3n2)cc1 (configuration not stated)
Ans: 100

Q: Quote inhibition with test system Polyunsaturated fatty acid 5-lipoxygenase (Homo sapiens) for CCCCCCCCCCCCC(O/N=C/C(=O)O)c1ccc(OCc2ccc3ccccc3n2)cc1 (configuration not stated)
Ans: 54

Q: # return inhibition for CCCCCCCCC(O/N=C(\C)C(=O)O)c1ccc(OCc2ccc3ccccc3n2)cc1 (configuration not stated) , test system: Polyunsaturated fatty acid 5-lipoxygenase (Homo sapiens)
Ans: 92
